For each record, write down the corresponding remaining at 24 h.
- Measurement protocol: Stability in neutral pH after 24 hrs
- Type: physicochemical
- Condition context: read-out: Stability
One number for each entry, in %.

Solved cases (2 shown):
CCCCCC[C@H]1C(=O)N[C@@]2(C[C@@H]3C=CCCC3)C(=O)O[C@@]12C [CINNABARAMIDE C] :: 50
CCCCCC(O)[C@H]1C(=O)N[C@@]2([C@@H](O)[C@@H]3C=CCCC3)C(=O)O[C@@]12C (stereo partly drawn) [CINNABARAMIDE B] :: 50

-- ask I'd like to know its remaining at 24 h. The compound in question is CCCCCC[C@H]1C(=O)N[C@@]2([C@@H](O)[C@@H]3C=CCCC3)C(=O)O[C@@]12C [CINNABARAMIDE A]
-- reply 50

Taken from ChEMBL document CHEMBL1141377.
